Protocol Description: Octanol-buffer partition coefficient, log D of the compound at pH 7.4 after 30 mins by shake flask method
Format: physicochemical
Metric Name: logD at 0.5 h

Sample records with logD at 0.5 h:
C[C@H](CO)OC[C@H](Oc1ncnc2c1cnn2-c1ncccc1Cl)C(=O)Nc1ccc(F)cn1 = 1.7
N#Cc1cccc(Cl)c1-n1ncc2c(O[C@@H](COCCO)C(=O)Nc3ccc(F)cn3)ncnc21 = 2
O=C(Nc1ccccn1)[C@H](CN1CC(O)C1)Oc1ncnc2c1cnn2-c1c(F)cccc1Cl = 2.3
N#Cc1ccc(NC(=O)[C@H](CN2CC(O)C2)Oc2ncnc3c2cnn3-c2ccccc2Cl)nc1 = 2.1
N#Cc1cccc(Cl)c1-n1ncc2c(O[C@@H](CN3CC(O)C3)C(=O)Nc3ccc(F)cn3)ncnc21 = 2

P. O=C(Nc1ccc(F)cn1)[C@H](COCCO)Oc1ncnc2c1cnn2-c1c(Cl)cccc1Cl
Q. C[C@H](CO)OC[C@H](Oc1ncnc2c1cnn2-c1ncccc1Cl)C(=O)Nc1ccc(C#N)cn1
Problem: Input pair: P , Q . Output: entry with lower logD at 0.5 h. Give the label of your selection.
Result: Q

P. O=C(Nc1ccc(Cl)cn1)[C@H](COCCO)Oc1ncnc2c1cnn2-c1ccccc1Cl
Q. O=C(Nc1ccc(Cl)cn1)[C@H](COCCO)Oc1ncnc2c1cnn2-c1ncccc1Cl
Problem: Of the two listed items, P and Q , which carries the larger logD at 0.5 h figure? Respond using the label that marks the chosen record.
Result: P

---

Experimental System: Voltage-gated inwardly rectifying potassium channel KCNH2 (Homo sapiens)
Sequence (Q12809 whole entry): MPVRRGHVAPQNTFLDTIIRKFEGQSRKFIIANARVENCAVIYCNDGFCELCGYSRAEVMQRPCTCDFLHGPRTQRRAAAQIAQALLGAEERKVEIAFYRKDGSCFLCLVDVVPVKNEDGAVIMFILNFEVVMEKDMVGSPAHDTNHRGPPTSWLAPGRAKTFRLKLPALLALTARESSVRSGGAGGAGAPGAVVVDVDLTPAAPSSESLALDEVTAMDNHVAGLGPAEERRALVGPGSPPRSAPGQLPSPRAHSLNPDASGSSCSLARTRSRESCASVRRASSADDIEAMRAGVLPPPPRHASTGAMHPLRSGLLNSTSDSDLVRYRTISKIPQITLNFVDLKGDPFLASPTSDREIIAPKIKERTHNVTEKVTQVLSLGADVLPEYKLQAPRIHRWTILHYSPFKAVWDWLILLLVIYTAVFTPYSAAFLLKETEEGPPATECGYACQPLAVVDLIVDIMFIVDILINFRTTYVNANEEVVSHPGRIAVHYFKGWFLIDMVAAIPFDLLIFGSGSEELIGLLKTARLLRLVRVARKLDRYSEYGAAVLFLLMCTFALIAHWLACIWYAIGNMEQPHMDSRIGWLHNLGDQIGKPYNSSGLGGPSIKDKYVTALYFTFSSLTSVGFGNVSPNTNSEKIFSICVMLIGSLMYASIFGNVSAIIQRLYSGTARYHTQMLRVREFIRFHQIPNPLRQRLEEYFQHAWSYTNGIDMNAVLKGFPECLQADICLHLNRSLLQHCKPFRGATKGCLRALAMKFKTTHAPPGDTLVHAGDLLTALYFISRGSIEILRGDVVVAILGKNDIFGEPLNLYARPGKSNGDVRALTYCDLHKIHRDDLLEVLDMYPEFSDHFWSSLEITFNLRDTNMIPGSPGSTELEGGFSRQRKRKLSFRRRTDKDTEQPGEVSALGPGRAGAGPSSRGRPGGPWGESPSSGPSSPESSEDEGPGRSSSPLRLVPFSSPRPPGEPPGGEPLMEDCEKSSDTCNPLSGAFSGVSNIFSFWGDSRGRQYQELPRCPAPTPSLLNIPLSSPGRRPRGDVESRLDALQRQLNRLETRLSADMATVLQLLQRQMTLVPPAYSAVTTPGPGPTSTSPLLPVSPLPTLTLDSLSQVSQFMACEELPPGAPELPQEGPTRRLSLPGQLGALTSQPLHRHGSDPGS
Metric Name: IC50

As a guide, the following entries are already answered.
C[C@@H](CO)OC[C@H](Oc1ncnc2c1cnn2-c1ncccc1Cl)C(=O)Nc1ccc(F)cn1 = > 100 µM
C[C@H](CO)OC[C@H](Oc1ncnc2c1cnn2-c1ncccc1Cl)C(=O)Nc1ccc(F)cn1 = > 100 µM

Problem: Return reported IC50; argument: O=C(Nc1ccccn1)[C@H](CN1CC(O)C1)Oc1ncnc2c1cnn2-c1ccccc1Cl
Result: > 100 µM

---

Organism: Rattus norvegicus
Protocol Description: Unbound clearance in rat
Assay type: ADME, organism-based
Study Conditions: in vivo
Metric Name: CL free (L/h/kg)

O=C(Nc1ccc(Cl)cn1)[C@H](CN1CC(O)C1)Oc1ncnc2c1cnn2-c1ncccc1Cl = 8.4
C[C@H](CO)OC[C@H](Oc1ncnc2c1cnn2-c1ncccc1Cl)C(=O)Nc1ccc(F)cn1 = 5.88
CC(C)OC[C@H](Oc1ncnc2c1cnn2-c1ncccc1Cl)C(=O)Nc1ccc(Cl)cn1 = 7.2

---

Experimental System: UniProt:P35557
Sequence (P35557 whole entry): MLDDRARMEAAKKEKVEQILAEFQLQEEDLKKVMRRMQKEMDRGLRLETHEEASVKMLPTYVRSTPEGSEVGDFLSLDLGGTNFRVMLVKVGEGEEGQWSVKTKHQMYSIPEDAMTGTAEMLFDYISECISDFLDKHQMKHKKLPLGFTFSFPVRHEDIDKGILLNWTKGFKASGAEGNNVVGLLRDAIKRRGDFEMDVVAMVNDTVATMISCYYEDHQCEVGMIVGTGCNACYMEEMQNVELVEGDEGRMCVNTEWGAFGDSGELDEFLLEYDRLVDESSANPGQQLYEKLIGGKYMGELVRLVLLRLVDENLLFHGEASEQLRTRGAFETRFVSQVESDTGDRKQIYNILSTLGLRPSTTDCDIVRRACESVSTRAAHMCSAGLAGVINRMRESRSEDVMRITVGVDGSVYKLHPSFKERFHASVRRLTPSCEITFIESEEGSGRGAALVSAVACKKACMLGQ
Protocol Description: Activation of glucokinase (unknown origin)
Study Conditions: read-out: pEC50 (converted)
Metric Name: EC50 (µM)

These recorded examples may help you get a feel for the data.
N#Cc1ccc(NC(=O)[C@H](CN2CC(O)C2)Oc2ncnc3c2cnn3-c2ccccc2Cl)nc1 = 0.2
O=C(Nc1ccc(F)cn1)[C@H](CN1CC(O)C1)Oc1ncnc2c1cnn2-c1c(F)cccc1Cl = 0.0501

P. O=C(Nc1ccc(F)cn1)[C@H](CN1CC(O)C1)Oc1ncnc2c1cnn2-c1ncccc1Cl
Q. N#Cc1ccc(NC(=O)[C@H](COCCO)Oc2ncnc3c2cnn3-c2ncccc2Cl)nc1
Problem: Choose between P and Q : whose measured EC50 value is numerically larger? Give the label under which the chosen entry appears.
Result: Q
(Q: 1.58 µM, P: 0.316 µM)

Source listed as ChEMBL document CHEMBL3217445.
